Can you tell me TGI for the items I'm about to list?
System: UACC-62 melanoma
Assay: NCI tumour cell line growth inhibition, 48 h
One number for each entry, in µM.

{"Compound": "O=C1C(=C(I)I)c2ccccc2-c2ccccc21", "Test System": "UACC-62 melanoma", "Result Units": "µM", "TGI": 10.7}
{"Compound": "O=C(COc1cccc(/C=C2\\COc3ccc(Cl)cc3C2=O)c1)c1ccc(Cl)cc1", "Test System": "UACC-62 melanoma", "Result Units": "µM", "TGI": 23.1}

Shift focus to the following entry.
Form entry - test system: UACC-62 melanoma; read-out: TGI; compound: `O=C1Nc2ccccc2/C1=C/c1c(Cl)[nH]c2ccc(O)cc12`
6.04

----------
Can you tell me TGI for the items I'm about to list?
Tested on: DU-145 prostate
Test: NCI tumour cell line growth inhibition, 48 h
One number for each entry, in µM.

# annotated cases, reported TGI shown
{"Compound": "O=C1Nc2ccccc2/C1=C/c1c(Cl)[nH]c2ccc(O)cc12", "Test System": "DU-145 prostate", "TGI [µM]": 6.69}
{"Compound": "C=C1C(=O)O[C@H]2[C@H]3O[C@@H](C[C@@H]12)[C@@]1(C)CC[C@H](O1)C(C)=CCC[C@H]3C", "Test System": "DU-145 prostate", "TGI [µM]": 2.86}
{"Compound": "COc1ccc(-c2nn(-c3cccc(Cl)c3)cc2-c2cc(-c3ccccc3)nc(N)n2)cc1", "Test System": "DU-145 prostate", "TGI [µM]": 22.3}

Which TGI is listed for `c1ccc2cc(CNCCOCCOCCNCc3ccc4ccccc4c3)ccc2c1` ?
3.37

----------
Test system: MDA-MB-231 breast
Experiment: NCI tumour cell line growth inhibition, 48 h; in the data active = GI50 below about 0.43 µM; inactive = the rest
A correct response names exactly one class from True for active, False for inactive

Lab log entry: `Nc1c(C(=O)Nc2ccccc2)sc2nc3c(cc12)CN(Cc1ccccc1)CC3` — outcome as called in the assay?
False

Lab log entry: `Nc1cc(N)c2nc(-c3ccccc3)c(NCc3ccc(F)cc3)nc2c1` — outcome as called in the assay?
False

Lab log entry: OCC1OC(n2cnc3c(=S)nc[nH]c32)C(O)C1O (configuration not stated) — outcome as called in the assay?
False

Lab log entry: C=C1CCC2C3(C)COC(c4ccccc4Br)OC3CCC2(C)C1C/C=C1/C(=O)OCC1OC(C)=O (configuration not stated) — outcome as called in the assay?
False

Lab log entry: `O=C(CN(/C=C/C(=O)C(F)(F)F)c1ccccc1)c1ccc(Cl)c(Cl)c1` — outcome as called in the assay?
False

Lab log entry: COc1cc(C2C3=C(COC3=O)Nc3cc4c(cc32)CCC4)cc2c1OCO2 (configuration not stated) — outcome as called in the assay?
True

Lab log entry: `O=C(CCCSc1nc(-c2ccccc2)cc(-c2ccc(Cl)cc2)n1)NO` — outcome as called in the assay?
False

Lab log entry: `O=C(CN1CCN(c2ccccc2)CC1)N1CCN(c2nnc(-c3ccc(Cl)cc3)c(-c3ccc(Cl)cc3)n2)CC1` — outcome as called in the assay?
False

Lab log entry: `Cc1cn2c(/C=N/Nc3ccccn3)c(-c3ccc(Cl)c([N+](=O)[O-])c3)nc2s1` — outcome as called in the assay?
False

Lab log entry: `Cn1ccnc1C(=O)/C=C/c1ccc(CC(=O)Nc2ccc(C(F)(F)F)cc2)cc1` — outcome as called in the assay?
False

Lab log entry: `N=C(N)c1ccc(COc2ccccc2OCc2ccc(C(=N)N)cc2)cc1` — outcome as called in the assay?
False

Lab log entry: COc1cc(C2CC(c3ccc(N(C)C)cc3)=NN2C(C)=O)cc(OC)c1OC (configuration not stated) — outcome as called in the assay?
False
